test system: RAW-Dual (murine macrophage reporter line); test: IRF reporter (Lucia luciferase) activity fold change vs agonist alone; higher = enhanced IRF activity; details: modulator concentration 10 µM; agonist: MPLA […]
Assignment: determine reported IRF reporter for the given compounds.
Answer as a number with no unit attached.

Q) I'd like to know its IRF reporter. The compound in question is `O=C(c1ccco1)c1nc2c(n1O)CCCCC2`
A) 1.03

Q) Param item = `Cc1cc(C(=O)O)n[nH]1` ; retrieve measured IRF reporter.
A) 1.34

Q) # lookup: IRF reporter of `c1ccc2oc(SCCCCSc3nc4ccccc4o3)nc2c1`
A) 1.4

Q) Name the recorded IRF reporter for `Nc1ncnc2c1ncn2[C@@H]1O[C@H](CO)[C@@H](O)[C@@H]1O` .
A) 1.02

Q) Bench note: what IRF reporter did `Cc1ccccc1C(=O)Nc1nc(C(C)(C)C)cs1` show?
A) 1.35

Q) Need IRF reporter of `CN(C)CCNC(=O)C(=O)NC(c1ccccc1)c1ccccc1` , thanks.
A) 0.962

Q) Field request: IRF reporter | item: Cc1c(Cl)ccc2c1NC(C(=O)O)C1CC=CC21 (stereo unspecified)
A) 1.13

Q) Recorded IRF reporter of CCCCCCOc1ccc(N2C(=O)CC(N3CCN(Cc4ccc5c(c4)OCO5)CC3)C2=O)cc1 (stereo unspecified) , please.
A) 1.32

Q) Given the compound `COc1ccc(CCNc2nnc(Cc3ccc(Cl)cc3)c(=O)[nH]2)cc1OC` , what is its reported IRF reporter?
A) 1.04

Q) Looking for the measured IRF reporter of `COc1ccc(N(CC(=O)N(C)Cc2ccccc2)S(C)(=O)=O)cc1OC` , can you help?
A) 1.1

Q) Please report the recorded IRF reporter for `CC1(C)CC(=O)C2=C(C1)OC(N)=C(C#N)C21CCCC1` .
A) 1.3

Q) For the compound shown here, `Clc1cccc(Nc2nc(-c3ccccn3)cs2)c1` , give the reported IRF reporter.
A) 0.658

Q) Which IRF reporter reading was recorded for the compound `COc1ccc(-c2cc(C(F)(F)F)n3nc(C(=O)Nc4cc(OC)c(OC)c(OC)c4)c(Cl)c3n2)cc1OC` ?
A) 1.1

Q) Quick check: IRF reporter of `Cc1ccc2sc(NC(=O)c3cccc(N4C(=O)CCC4=O)c3)nc2c1C` ?
A) 1.57

Q) Given the compound `O=C(COc1cccc2ccccc12)NCc1ccncc1` , what is its reported IRF reporter?
A) 1.06

Q) Would you mind telling me what IRF reporter value was observed for `COc1ccc(C(=O)OCCCN2C(=O)c3ccccc3C2=O)cc1` ?
A) 1.41

Q) Item under review: `COc1cccc(CC(=O)Nc2ccc(CC(=O)N3CCC(O)CC3)cc2)c1` . Reported IRF reporter?
A) 1.37

Q) Given `Oc1cccc(C=Nc2ccc(N=Cc3cccc(O)c3O)cc2)c1O` , state its recorded IRF reporter.
A) 0.922

Q) What IRF reporter value was documented for this compound, `O=C(O)CN1C(=O)c2cccc3cccc(c23)C1=O` ?
A) 0.956

Q) Please give the measured IRF reporter for this compound: `O=C(NCc1nc(C2CCCCC2)cs1)c1ccc(F)cc1`
A) 1.1

Q) Tell me the measured IRF reporter of `COc1cc(NC(=O)COc2ccc(C(C)C)c(C)c2)c(OC)cc1Cl` , please.
A) 1.28

Q) I am curious: what IRF reporter value has been reported for CC(=O)OC1=C(O)C=CC2C(C)=CC(=O)OC12 (stereo unspecified) ?
A) 1.47

Q) What IRF reporter value was documented for this compound, `CCn1cc(C(=O)O)c(=O)c2cc(F)c(N3CCN(C)CC3)cc21.CS(=O)(=O)O` ?
A) 1.17

Q) What measured IRF reporter goes with `CN(C)CCCN1c2ccccc2CCc2ccc(Cl)cc21.Cl` ?
A) 1.78

Q) IRF reporter for COC1CC2CCC(C1)N2S(=O)(=O)c1ccc(Br)cc1 (stereo unspecified) ?
A) 1.15

Q) GET /values?readout=IRF reporter&item= `CN(C)CC#CCNC(=O)Nc1ccc(C(F)(F)F)cc1`
A) 1.22

Q) Would you kindly share the measured IRF reporter for `O=C(NC(=S)Nc1ccc2[nH]c(=O)[nH]c2c1)c1ccc(F)cc1` ?
A) 1.05

Q) Dear colleague, I am looking for the recorded IRF reporter of the following compound: `ON=C1ON=C(c2ccccc2)C1=NO`
A) 1.42

Q) What value of IRF reporter has been recorded for this entry: `CCN(CC)c1ccc(C=NNC(=O)c2ccccc2C)c(O)c1`
A) 0.721

Q) If you can, please state the reported IRF reporter value of CCC1SC(=NN=Cc2cccc3ccccc23)NC1=O (stereo unspecified) .
A) 0.974

Q) Recorded IRF reporter for CCCCc1oc2ccccc2c1C(=O)c1cc(I)c(OCCN(CC)CC)c(I)c1 [Prestw-409] , please?
A) 1.51

Q) # query: IRF reporter of entry `Cn1c(=O)cc(N2CCC[C@@H](N)C2)n(Cc2cc(F)ccc2C#N)c1=O.O=C(O)CCC(=O)O`
A) 0.205

Q) What measured IRF reporter goes with `O=C(CSc1nnnn1-c1ccccc1)NC12CC3CC(CC(C3)C1)C2` ?
A) 0.933

Q) Quick one: IRF reporter of COC(=O)C1C(c2ccccc2)C(C(=O)Oc2ccc(C(C)=O)cc2)C1c1ccccc1 (stereo unspecified) ?
A) 1.28

Q) Fill blank: measured IRF reporter of the compound `O=C(Nc1cc(C(F)(F)F)cc(C(F)(F)F)c1)c1c(F)cccc1F` is ____.
A) 1.07

Q) Please report the recorded IRF reporter for `CC1=NN(c2ccc(S(N)(=O)=O)cc2)C(=O)C1=Cc1ccc(C)s1` .
A) 1.54

Q) Quick one: IRF reporter for Br.CN(C)CCCC1(c2ccc(F)cc2)OCc2cc(C#N)ccc21 (stereo unspecified) ?
A) 1.39

Q) What does the data say about its IRF reporter? Entry: CCN(CC)CC#CCOC(=O)C(O)(c1ccccc1)C1CCCCC1 (stereo unspecified)
A) 1.3

Q) So what does the record say about IRF reporter for `Cn1cc(CC(=O)NC2CCN(c3cc(C(F)(F)F)ncn3)CC2)c2ccccc21` ?
A) 1.39

Q) Fill blank: measured IRF reporter of the compound `COc1ccc(Cl)cc1C(=O)N1CCC(S(=O)(=O)c2nncn2C)CC1` is ____.
A) 1.11

Q) Field request: IRF reporter | item: CN1CCC(=C2c3ccccc3C=Cc3ccccc32)CC1 [Prestw-103]
A) 0.915

Q) I have this compound here, O=C(NCC1(O)CCOc2ccccc21)c1ccccc1C(F)(F)F (stereo unspecified) , and I need its recorded IRF reporter.
A) 0.721

Q) Need IRF reporter of `C=CCN1C(=O)C(C)(C)COc2cc(NC(=O)c3ccc(Br)o3)ccc21` , thanks.
A) 0.982

Q) Look at this compound and give its reported IRF reporter. `Oc1c(Cl)cc(Cl)cc1C=Nc1cc(Cl)cc(Cl)c1`
A) 1.09

Q) Look at this compound and give its reported IRF reporter. `NS(=O)(=O)c1ccc2c(c1)CCCC2`
A) 0.957

Q) Entry `N#CCCN(C1CCCCC1)S(=O)(=O)c1cccc2nsnc12` : reported IRF reporter = ?
A) 1.28

----------
Please go through the items and note down their NF-kB reporter.
system: RAW-Dual (murine macrophage reporter line); experiment: NF-kB reporter (SEAP) activity fold change vs agonist alone; higher = enhanced NF-kB activity; details: modulator concentration 10 µM; agonist: LPS 0.1 ug/mL

Q) Can you look up the measured NF-kB reporter of `Cc1ccc(Nc2ccc(NC(=O)C(C)C)cc2)nn1` for me?
A) 0.993

Q) Reported NF-kB reporter, compound `Cc1ccc(F)c(NC(=O)Nc2ccc(-c3cccc4[nH]nc(N)c34)cc2)c1` : ____
A) 0.758

Q) Param item = `CC1=NN(c2ccc(S(N)(=O)=O)cc2)C(=O)C1=Cc1ccc(N(C)C)cc1` ; retrieve measured NF-kB reporter.
A) 0.967

Q) Query (compound): O=S(=O)(Cc1cccc(Cl)c1)N1C2CCC1CC(Oc1cccnc1)C2 (stereo not given) ; field requested: NF-kB reporter
A) 1.13

Q) // query NF-kB reporter value for entry `Cc1cccc(CSc2nn3c(=O)c(C)nnc3s2)c1`
A) 0.937

Q) I'd like to know its NF-kB reporter. The compound in question is `O=c1[nH]cc(F)c(=O)[nH]1`
A) 0.887

Q) Record request: NF-kB reporter value, item `CS(=O)(=O)O.O=C(NC1CCN(CCCCC2(C(=O)NCC(F)(F)F)c3ccccc3-c3ccccc32)CC1)c1ccccc1-c1ccc(C(F)(F)F)cc1`
A) 0.0479

Q) I have this compound here, `CC(=NOCCCl)C(C)=NOCCCl` , and I need its recorded NF-kB reporter.
A) 1.05

Q) Which NF-kB reporter reading was recorded for the compound Cc1nc(-c2ccc(S(=O)(=O)N3C4CCC3CC(Oc3cccnc3)C4)cc2)co1 (stereo not given) ?
A) 1.08

Q) Data request, read-out NF-kB reporter, for `COc1ccccc1C=C(C#N)c1nc(-c2cc3cc(Br)ccc3oc2=O)cs1`
A) 0.962
